test system: RAW264.7; experiment: Suppression of LPS-induced NO production in mouse RAW264.7 cells by fluorometric assay; type: functional, cell-based; conditions: raw264.7
Measured IC50 values are reported for all entries that follow.
experimental_endpoint: IC50 (nM)

{"molecule": "CCOC(=O)C1=CCCCC1S(=O)(=O)Cc1ccccc1Cl (stereo in doubt; 10e)", "tgt": "RAW264.7", "experimental_endpoint": "IC50", "unit_spec": "nM", "assay_value": 14}
{"molecule": "CCOC(=O)C1=CCCCC1S(=O)(=O)C(C)c1ccccc1 (stereo in doubt; 19a)", "tgt": "RAW264.7", "experimental_endpoint": "IC50", "unit_spec": "nM", "assay_value": 100}
{"molecule": "CCOC(=O)C1=CCCCC1S(=O)(=O)Cc1ccc(F)cc1Cl (stereo in doubt; 10a)", "tgt": "RAW264.7", "experimental_endpoint": "IC50", "unit_spec": "nM", "assay_value": 10}
{"molecule": "CCOC(=O)C1=CCCCC1S(=O)(=O)C(CF)c1ccc(F)cc1Cl (stereo in doubt; 26a)", "tgt": "RAW264.7", "experimental_endpoint": "IC50", "unit_spec": "nM", "assay_value": 435}
{"molecule": "CCOC(=O)C1=CCCCC1S(=O)(=O)C(C)c1ccccc1 (stereo in doubt; 19b)", "tgt": "RAW264.7", "experimental_endpoint": "IC50", "unit_spec": "nM", "assay_value": 1320}
{"molecule": "CCOC(=O)C1=CCCCC1S(=O)(=O)C(C)c1ccc(F)cc1Cl (stereo in doubt; 22a)", "tgt": "RAW264.7", "experimental_endpoint": "IC50", "unit_spec": "nM", "assay_value": 14}
{"molecule": "CCOC(=O)C1=CCCCC1S(=O)(=O)C(C)c1ccc(F)cc1Cl (single isomer, unassigned; (+))", "tgt": "RAW264.7", "experimental_endpoint": "IC50", "unit_spec": "nM", "assay_value": 4}
{"molecule": "CCOC(=O)C1=CCCCC1S(=O)(=O)Cc1ccc(F)cc1Cl (stereo in doubt; (-)-10a)", "tgt": "RAW264.7", "experimental_endpoint": "IC50", "unit_spec": "nM", "assay_value": 10000}
{"molecule": "CCOC(=O)C1=CCCCC1S(=O)(=O)Cc1ccccc1Cl (single isomer, unassigned; (-))", "tgt": "RAW264.7", "experimental_endpoint": "IC50", "unit_spec": "nM", "assay_value": 1200}

====

tested on: RAW264.7; assay: Suppression of LPS-induced IL6 production in mouse RAW264.7 cells; assay type: functional, cell-based
pIC50: −log10 of the molar value.

{"molecule": "CCOC(=O)C1=CCCC[C@H]1S(=O)(=O)[C@@H](C)c1ccc(F)cc1Cl", "pIC50": 8.74}
{"molecule": "CCOC(=O)C1=CCCC[C@H]1S(=O)(=O)Cc1ccc(F)cc1Cl", "pIC50": 8.82}
{"molecule": "CCOC(=O)C1=CCCCC1S(=O)(=O)Cc1ccc(F)cc1Cl (stereo in doubt; 10a)", "pIC50": 8.32}
{"molecule": "CCOC(=O)C1=CCCCC1S(=O)(=O)C(C)c1ccc(F)cc1Cl (stereo in doubt; 22a)", "pIC50": 8.24}
